Biological target: HIPK4 (human) (UniProt Q8NE63)
Sequence (Q8NE63 whole entry, looked up): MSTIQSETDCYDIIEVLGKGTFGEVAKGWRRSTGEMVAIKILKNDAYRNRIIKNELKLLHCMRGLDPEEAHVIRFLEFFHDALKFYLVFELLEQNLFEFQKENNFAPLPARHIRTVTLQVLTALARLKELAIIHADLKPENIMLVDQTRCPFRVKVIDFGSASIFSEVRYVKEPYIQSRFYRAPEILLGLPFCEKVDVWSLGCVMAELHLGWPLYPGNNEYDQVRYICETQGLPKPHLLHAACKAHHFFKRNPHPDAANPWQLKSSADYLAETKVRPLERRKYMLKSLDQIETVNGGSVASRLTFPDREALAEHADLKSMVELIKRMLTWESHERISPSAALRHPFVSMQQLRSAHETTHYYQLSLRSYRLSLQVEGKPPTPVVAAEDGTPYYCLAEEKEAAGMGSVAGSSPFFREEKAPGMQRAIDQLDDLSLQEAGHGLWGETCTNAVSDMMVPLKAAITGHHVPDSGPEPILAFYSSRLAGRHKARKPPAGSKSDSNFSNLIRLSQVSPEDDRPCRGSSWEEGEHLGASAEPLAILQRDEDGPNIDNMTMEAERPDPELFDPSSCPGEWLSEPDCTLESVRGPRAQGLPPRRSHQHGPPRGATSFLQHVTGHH
Assay: radiometric filter-binding kinase assay, Kinase HotSpot
Conditions: compound 0.5 µM; ATP 10 µM
parameter: residual activity (%)

> print(dat)
                             smilesnotation          parameter  quantitativereadout
1           Nc1ncnc2[nH]nc(Nc3ccc(F)cc3)c12  residual activity                 98.5
2                 CC(=O)c1ccc(N2CCOCC2)cc1O  residual activity                  101
3      c1ccc(-c2n[nH]cc2-c2ccnc3ccccc23)nc1  residual activity                 89.9
4  Nc1cccc(-c2cc3c(Oc4cccc(O)c4)ncnc3[nH]2)c1  residual activity                  103
5  CCN(CC)CCNC(=O)c1c(C)[nH]c(/C=C2\C(=O)Nc3ccc(Cl)cc32)c1C  residual activity                 61.7

This collection of values is drawn from the kinase profiling compilation of Christmann-Franck et al. (2016).
